// provenance: patent US8987314B2

# Test system: Endothelial lipase (EL) (Homo sapiens (Human), UniProt Q9Y5X9)
# Sequence (Q9Y5X9 21-500): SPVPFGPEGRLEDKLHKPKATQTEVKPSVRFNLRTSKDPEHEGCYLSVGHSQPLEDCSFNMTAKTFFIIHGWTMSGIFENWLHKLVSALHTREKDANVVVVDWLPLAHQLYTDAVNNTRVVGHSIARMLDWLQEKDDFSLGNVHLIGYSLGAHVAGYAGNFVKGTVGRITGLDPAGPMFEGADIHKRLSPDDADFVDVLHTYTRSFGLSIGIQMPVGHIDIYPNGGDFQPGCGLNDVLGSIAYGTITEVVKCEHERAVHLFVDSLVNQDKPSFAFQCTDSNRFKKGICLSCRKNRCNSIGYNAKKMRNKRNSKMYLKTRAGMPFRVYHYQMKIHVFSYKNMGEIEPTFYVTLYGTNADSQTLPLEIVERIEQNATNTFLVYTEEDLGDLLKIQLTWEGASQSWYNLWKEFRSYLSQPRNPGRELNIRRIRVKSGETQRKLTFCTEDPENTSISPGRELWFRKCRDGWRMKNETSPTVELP
# Test description: EL assay: endothelial lipase activity with fluorescent substrate A10070 in DMPG vesicles
# Assay type: biochemical
Test readout: IC50

Known results for compounds:
{"Compound": "Cc1nnc(CNC(=O)C(c2nc3cc(C)c(-c4ccc(F)nc4)cc3s2)S(C)(=O)=O)o1 (stereo not shown) [Example B80]", "IC50": "< 10 nM"}
{"Compound": "NS(=O)(=O)CCNC(=O)C(c1nc2ccc(-c3ccc(C(=O)N4CCOCC4)cc3)cc2s1)S(=O)(=O)CCNC(=O)OCc1ccccc1 (stereo not shown) [Example B158]", "IC50": "< 10 nM"}
{"Compound": "CS(=O)(=O)C(C(=O)NCCS(N)(=O)=O)c1nc2ccc(-c3cncnc3)cc2s1 (stereo not shown) [Example B146]", "IC50": "< 10 nM"}

Let us move to another entry and its IC50.
input: What measured IC50 goes with CS(=O)(=O)C(C(=O)NCCS(N)(=O)=O)c1nc2cc(-c3ccnc(F)c3)ccc2s1 (stereo not shown) [Example B369] ?
output: 1.5 nM

====

Let's look at some compounds and their measured pIC50.
# Test system: Endothelial lipase (EL) (Homo sapiens (Human))
# Test description: EL assay: endothelial lipase activity with fluorescent substrate A10070 in DMPG vesicles
# Format: biochemical
API: returns pIC50 as number; meaning -log10 of concentration in mol/L.

{"Compound": "Cc1cc2nc(C(C(=O)NCCS(N)(=O)=O)S(C)(=O)=O)sc2cc1-c1ccc(C(=O)N2CCOCC2)cc1 (stereo not shown) [Example B350]", "pIC50": 8.49}

Let us move to another entry and its pIC50.
input: What measured pIC50 goes with CC(C)(C)OC(=O)n1ccc(-c2ccc3nc(C(C(=O)NCCS(N)(=O)=O)S(C)(=O)=O)sc3c2)c1 (stereo not shown) [Example B220] ?
output: 7.29

====

Let's look at some compounds and their measured pIC50.
# Test system: hepatic lipase (HL) (Homo sapiens (Human), UniProt P11150)
# Sequence (P11150 23-499, species assumed): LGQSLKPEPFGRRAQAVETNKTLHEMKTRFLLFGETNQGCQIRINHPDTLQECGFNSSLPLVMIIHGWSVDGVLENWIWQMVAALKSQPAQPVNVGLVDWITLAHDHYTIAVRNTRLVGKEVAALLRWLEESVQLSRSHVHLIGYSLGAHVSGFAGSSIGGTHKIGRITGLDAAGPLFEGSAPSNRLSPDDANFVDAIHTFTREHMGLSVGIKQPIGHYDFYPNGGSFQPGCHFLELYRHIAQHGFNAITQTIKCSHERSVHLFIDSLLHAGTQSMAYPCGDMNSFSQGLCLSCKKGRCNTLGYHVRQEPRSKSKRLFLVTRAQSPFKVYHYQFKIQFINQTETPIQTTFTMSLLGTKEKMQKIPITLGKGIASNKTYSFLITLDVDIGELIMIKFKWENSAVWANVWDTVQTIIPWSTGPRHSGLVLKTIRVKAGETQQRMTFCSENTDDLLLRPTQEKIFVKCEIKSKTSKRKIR
# Test description: HL assay: hepatic lipase activity with fluorescent substrate A10070 in DMPG vesicles
# Format: biochemical
API: returns pIC50 as number; meaning -log10 of concentration in mol/L.

input: What measured pIC50 goes with CS(=O)(=O)C(C(=O)NCc1csc(N)n1)c1nc2ccc(-c3ccc(C(=O)N4CCOCC4)cc3)cc2s1 (centres unmarked) ?
output: 4.76

input: What measured pIC50 goes with COc1ncccc1-c1ccc2nc(C(C(=O)NCCS(N)(=O)=O)S(C)(=O)=O)sc2c1 (centres unmarked) ?
output: 7.19

input: What measured pIC50 goes with CC(C)(O)CNC(=O)c1cccc(-c2ccc3nc(C(C(=O)NCCS(N)(=O)=O)S(=O)(=O)CCC(F)(F)F)sc3c2)c1 (centres unmarked) ?
output: 6.67

input: What measured pIC50 goes with COCCn1cc(-c2ccc3nc(C(C(=O)NCCS(N)(=O)=O)S(=O)(=O)Cc4ccc(F)cc4)sc3c2)cn1 (centres unmarked) ?
output: 5.59

input: What measured pIC50 goes with COCCS(=O)(=O)C(C(=O)NCc1nnc(C)o1)c1nc2cc(F)c(-c3ccc(C(=O)N4CCCC4)cc3)cc2s1 (centres unmarked) ?
output: 6.43

input: What measured pIC50 goes with Cc1nnc(CNC(=O)C(c2nc3cc(C)c(-c4ccc(C(=O)N5CCOCC5)cc4)cc3s2)S(=O)(=O)Cc2ccccc2)o1 (centres unmarked) ?
output: 6.60

input: What measured pIC50 goes with COCCOC(=O)Nc1ccc(-c2ccc3nc(C(C(=O)NCCS(N)(=O)=O)S(C)(=O)=O)sc3c2)cc1 (centres unmarked) ?
output: 8.72

input: What measured pIC50 goes with CS(=O)(=O)C(C(=O)NCCS(N)(=O)=O)c1nc2cc(-c3cncnc3)ccc2s1 (centres unmarked) ?
output: 7.15

input: What measured pIC50 goes with CC1(O)CN(C(=O)c2ccc(-c3ccc4nc(C(C(=O)NCCS(N)(=O)=O)S(C)(=O)=O)sc4c3)cc2)C1 (centres unmarked) ?
output: 6.04

input: What measured pIC50 goes with COCCNC(=O)c1ccc(-c2ccc3sc(C(C(=O)NCCS(N)(=O)=O)S(C)(=O)=O)nc3c2)cc1 (centres unmarked) ?
output: 8.15

input: What measured pIC50 goes with CC(C)(C)OC(=O)N1CC=C(c2ccc3sc(C(C(=O)NCCS(N)(=O)=O)S(C)(=O)=O)nc3c2)CC1 (centres unmarked) ?
output: 7.44

input: What measured pIC50 goes with COCCS(=O)(=O)C(C(=O)NCc1nnc(C)o1)c1nc2cc(F)c(-c3ccc(C(=O)N4CCCC4)c(F)c3)cc2s1 (centres unmarked) ?
output: 6.12

input: What measured pIC50 goes with NS(=O)(=O)CCNC(=O)C(c1nc2ccc(-c3ccc(C(=O)N4CCC(F)(F)C4)cc3)cc2s1)S(=O)(=O)Cc1ccc(OC(F)(F)F)cc1 (centres unmarked) ?
output: 7.24
